B1: TRIM14 (parent)
chain: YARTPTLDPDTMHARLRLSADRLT

- Variants of: B1
- TEST_DESCRIPTION: protein stability index of a GFP-peptide fusion (GPS, HEK-293T) (PSI 1-6); higher = more stable;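 also: lentivirally expressed fusions sorted by FACS into six bins by GFP to DsRed ratio, PSI derived from sequencing read proportions per bin multiplied by bin number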
- CONDITION_LABEL: c terminus: a fixed tail appended
Parameter threshold = 3. Response is 1.0 when protein stability index meets or exceeds it, else 0.0.

Could you verify whether the entry YARTPTLDPDTMHARLRLSADRLY shows protein stability index of no less than 3? 0.0

Entry YARTPTDDPDTMHARLRLSADRLT please 1.0

Entry YARTPTLDPDTMHAQLRLSADRLT please 0.0

Entry YARTPTLSPDTMHARLRLSADRLT please 0.0

Entry YARTPTLDPDTNHARLRLSADRLT please 1.0

Entry YARTPTLDPDTPHARLRLSADRLT please 1.0

Entry YARTPTLGPDTMHARLRLSADRLT please 0.0

Entry YLRTPTLDPDTMHARLRLSADRLT please 0.0

Entry YARTPTLDPDTMHARLRLSADMLT please 0.0

Entry YARTPTGDPDTMHARLRLSADRLT please 0.0

Entry YARTPTLDPDTMHAMLRLSADRLT please 0.0

Entry FARTPTLDPDTMHARLRLSADRLT please 0.0

Entry YARTPTLDPDTMEARLRLSADRLT please 0.0

Entry YARTPTLDPDTMHARLRLSADKLT please 0.0

Entry YANTPTLDPDTMHARLRLSADRLT please 1.0

Entry YARTQTLDPDTMHARLRLSADRLT please 0.0

Entry YALTPTLDPDTMHARLRLSADRLT please 1.0

Entry YARTPTLEPDTMHARLRLSADRLT please 0.0

Entry YARTPTLDPDTMCARLRLSADRLT please 0.0

// data source = the supplement of paper PMC10567573
